# Tested on: Primary human T-cells
# Run description: Primary Human T-Cell Proliferation Assay Stimulated with IL-2 (CellTiter-Glo)
# Assay type: cell-based
# Applied conditions: primary human T-cell proliferation stimulated with IL-2; read-out: IC50, Example 42
Endpoint: IC50

Below, 5 compounds whose answers are already recorded.
>>> df
                                   compound  experimental_result
0  Cc1cc(Nc2nc(Nc3cccc(S(N)(=O)=O)c3)ncc2F)cc(C)c1OC(C)C#N (racemic)               136 nM
1  Cn1ccc(NC(=O)Cc2ccc(Nc3nc(Nc4cccc(S(N)(=O)=O)c4)ncc3F)cc2)n1              1970 nM
2  Cc1cc(COc2ccc(Nc3nc(Nc4ccc(C)c(S(N)(=O)=O)c4)ncc3F)cc2)[nH]n1               329 nM
3  Cc1cc(Nc2nc(Nc3ccc(S(N)(=O)=O)cc3)ncc2F)ccc1OCc1ccccn1              1690 nM
4  Cc1cc(Nc2nc(Nc3ccc(C)c(S(N)(=O)=O)c3)ncc2F)ccc1OC(C)C#N (racemic)               376 nM

In: Param item = Cc1cc(CCC#N)ccc1Nc1nc(Nc2cccc(S(N)(=O)=O)c2)ncc1F [III-26] ; retrieve measured IC50.
Out: 583 nM

In: Param item = `CNS(=O)(=O)c1cc(Nc2ncc(F)c(Nc3ccc(Cc4ccncc4)cc3)n2)ccc1C` ; retrieve measured IC50.
Out: 220 nM

In: Param item = `CCN(CC)CCNS(=O)(=O)c1cccc(Nc2ncc(F)c(Nc3ccc(OCc4cc(C)on4)cc3)n2)c1` ; retrieve measured IC50.
Out: 442 nM
